system: hGAT1 (Homo sapiens, UniProt P30531)
Construct: expressed in transfected cells
Sequence (P30531 whole entry): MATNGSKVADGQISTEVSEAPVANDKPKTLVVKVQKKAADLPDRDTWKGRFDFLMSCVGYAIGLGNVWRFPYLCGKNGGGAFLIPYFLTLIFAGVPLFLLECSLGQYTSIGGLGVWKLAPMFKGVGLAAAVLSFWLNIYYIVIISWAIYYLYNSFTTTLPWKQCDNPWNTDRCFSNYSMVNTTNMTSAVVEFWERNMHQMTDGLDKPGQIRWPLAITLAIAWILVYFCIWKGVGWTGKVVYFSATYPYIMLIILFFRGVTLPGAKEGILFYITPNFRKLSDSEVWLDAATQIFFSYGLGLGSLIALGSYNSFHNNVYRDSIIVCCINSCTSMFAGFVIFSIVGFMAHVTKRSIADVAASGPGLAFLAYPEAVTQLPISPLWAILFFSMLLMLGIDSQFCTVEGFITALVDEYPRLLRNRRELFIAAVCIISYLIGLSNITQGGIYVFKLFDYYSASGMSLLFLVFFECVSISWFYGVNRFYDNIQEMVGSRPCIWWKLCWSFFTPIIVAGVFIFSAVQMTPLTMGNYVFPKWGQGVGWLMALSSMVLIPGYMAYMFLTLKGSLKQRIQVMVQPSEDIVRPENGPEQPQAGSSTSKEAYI
assay-summary: [3H]GABA uptake inhibition at hGAT1 stably expressed in CHO Flp-In cells
Format: cell-based
measurement-setup: 30 nM [3H]GABA, 3 min, CHO Flp-In cells stably expressing hGAT1; read-out: IC50 hGAT1
pIC50: −log10 of the molar value.
measured-property: pIC50

Some solved entries appear below for comparison.
# compound, system, pIC50
data = [
    ("NC1=NC=C(C(=O)O)CN1.O=C(O)C(F)(F)F [compound 11]", "hGAT1 (Homo sapiens, UniProt P30531)", "< 3.00"),
    ("NC1=NCC(C(=O)O)CC1 (centres unmarked) [compound 2, reference compound]", "hGAT1 (Homo sapiens, UniProt P30531)", 3.67),
    ("C[C@@H]1N=C(N)NC[C@@H]1C(=O)O (single isomer, unassigned) [l-15a]", "hGAT1 (Homo sapiens, UniProt P30531)", "< 3.00"),
    ("Cl.NC1=NCC(C(=O)O)CN1Cc1ccccc1 (centres unmarked) [compound 4]", "hGAT1 (Homo sapiens, UniProt P30531)", "< 3.00"),
]

Here's the next entry for you.
Observed pIC50 on hGAT1 (Homo sapiens, UniProt P30531) for NC1=NCC(C(=O)O)CN1CCCC(c1ccccc1)c1ccccc1 (centres unmarked) [compound 7] , please. < 3.00
